Tested on: rat aortic ring
methodDescription: Rat aortic ring assay (ex vivo microvessel sprouting)
Parameters: species or system Sprague Dawley rats
measurementParameters: beta-FGF induced; peptide 50 μM
Ends that are not written are not given here.
propertyLabel: level of sprouting microvessels around the aortic ring

>>> endpointresult("NH2-Asp-Leu-Tyr-Arg-Met-Lys-Ser-COOH (DLYRMKS; not fully specified (N-terminus, C-terminus); printed as NH2-Asp-Leu-Tyr-Arg-Met-Lys-Ser-COOH) [7-mer MK]")
"inhibited"
>>> endpointresult("NH2-Asp-Leu-Tyr-Lys-Val-Pro-Ser-COOH (DLYKVPS; not fully specified (N-terminus, C-terminus); printed as NH2-Asp-Leu-Tyr-Lys-Val-Pro-Ser-COOH) [7-mer KP]")
"inhibited"
>>> endpointresult("NH2-Asp-Leu-Tyr-Arg-Leu-Arg-Ser-COOH (DLYRLRS; not fully specified (N-terminus, C-terminus); printed as NH2-Asp-Leu-Tyr-Arg-Leu-Arg-Ser-COOH) [7-mer (V→L)]")
"inhibited"

Entry source: patent US10463709B2
